molecular target: UniProt:P42336; test: PI3K-alpha fluorescence polarization assay; assay type: biochemical; details: read-out: PI3Kα Avg. IC50
Sequence (P42336 whole entry, species assumed): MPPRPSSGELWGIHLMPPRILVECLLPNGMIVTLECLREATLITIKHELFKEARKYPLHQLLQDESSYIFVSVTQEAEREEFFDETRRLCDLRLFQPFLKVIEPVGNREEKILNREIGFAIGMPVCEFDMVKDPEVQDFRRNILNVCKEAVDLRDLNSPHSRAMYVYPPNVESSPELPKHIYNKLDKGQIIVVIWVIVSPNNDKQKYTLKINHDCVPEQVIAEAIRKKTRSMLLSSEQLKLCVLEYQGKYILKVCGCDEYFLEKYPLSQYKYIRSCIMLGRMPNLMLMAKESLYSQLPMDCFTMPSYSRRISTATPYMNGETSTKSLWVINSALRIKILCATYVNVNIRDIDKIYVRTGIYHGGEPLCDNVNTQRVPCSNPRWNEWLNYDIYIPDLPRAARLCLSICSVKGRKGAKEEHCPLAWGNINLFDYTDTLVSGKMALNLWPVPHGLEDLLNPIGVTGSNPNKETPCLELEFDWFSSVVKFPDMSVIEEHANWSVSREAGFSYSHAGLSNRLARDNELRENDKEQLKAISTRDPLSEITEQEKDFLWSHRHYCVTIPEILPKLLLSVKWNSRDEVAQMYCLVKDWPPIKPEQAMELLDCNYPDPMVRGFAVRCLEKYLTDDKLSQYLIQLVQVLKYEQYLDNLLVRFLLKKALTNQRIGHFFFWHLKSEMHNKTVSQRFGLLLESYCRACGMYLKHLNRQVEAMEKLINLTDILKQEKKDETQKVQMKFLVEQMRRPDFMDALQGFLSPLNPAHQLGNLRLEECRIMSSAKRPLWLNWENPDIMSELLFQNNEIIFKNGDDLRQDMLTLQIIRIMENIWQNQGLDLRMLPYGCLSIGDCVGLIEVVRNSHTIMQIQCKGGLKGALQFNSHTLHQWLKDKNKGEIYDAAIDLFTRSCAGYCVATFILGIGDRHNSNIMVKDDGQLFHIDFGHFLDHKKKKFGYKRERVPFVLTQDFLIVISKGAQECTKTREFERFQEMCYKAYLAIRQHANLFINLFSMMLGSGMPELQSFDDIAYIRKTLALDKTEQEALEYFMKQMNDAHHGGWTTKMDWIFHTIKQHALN
Sequence (P27986 whole entry partner, species assumed): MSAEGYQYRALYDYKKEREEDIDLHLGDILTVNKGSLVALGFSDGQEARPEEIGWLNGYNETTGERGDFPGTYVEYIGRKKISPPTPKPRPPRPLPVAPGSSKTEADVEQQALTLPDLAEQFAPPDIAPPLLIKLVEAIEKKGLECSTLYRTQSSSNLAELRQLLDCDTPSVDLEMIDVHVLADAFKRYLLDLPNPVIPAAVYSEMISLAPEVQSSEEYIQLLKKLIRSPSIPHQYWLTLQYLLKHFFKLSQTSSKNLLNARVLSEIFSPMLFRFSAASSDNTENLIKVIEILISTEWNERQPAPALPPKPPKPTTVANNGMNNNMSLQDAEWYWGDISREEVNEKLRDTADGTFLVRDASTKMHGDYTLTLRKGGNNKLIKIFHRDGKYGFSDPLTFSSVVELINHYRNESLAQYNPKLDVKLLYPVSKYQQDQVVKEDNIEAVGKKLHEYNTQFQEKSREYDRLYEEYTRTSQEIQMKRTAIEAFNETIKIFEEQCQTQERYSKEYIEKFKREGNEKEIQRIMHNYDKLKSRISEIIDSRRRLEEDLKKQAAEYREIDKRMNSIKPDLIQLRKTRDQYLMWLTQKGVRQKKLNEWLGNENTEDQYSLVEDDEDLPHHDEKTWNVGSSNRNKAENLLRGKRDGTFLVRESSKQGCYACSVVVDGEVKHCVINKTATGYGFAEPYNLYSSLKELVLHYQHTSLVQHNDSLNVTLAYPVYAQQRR
MEASURED QUANTITY: IC50 (nM)

{"columns": ["MOLECULE", "MEASURED QUANTITY", "DATA VALUE"],
 "data": [
  ["COc1ccc2c(c1)c(/C=C1\\Oc3ccc(NC(=O)NCCO)cc3C1=O)cn2CCCN(C)C", "IC50", 73]
]}

[1] CN(c1ccccc1)c1cccc2c1c(/C=C1\Oc3cc(O)cc(O)c3C1=O)cn2C
[2] COc1ccc2[nH]c(C3CCCCC3)c(/C=C3\Oc4ccc(NC(=O)Nc5ccc(C(=O)N6CCN(C)CC6)cc5)cc4C3=O)c2c1
[3] CNC(=O)Nc1ccc2c(c1)C(=O)/C(=C/c1c(N3CCN(C)CC3)n(CCN3CCN(C)CC3)c3ccc(OC)cc13)O2
Please rank these molecules by IC50 in descending order. Answer by writing out the labels in the requested order.
1, 3, 2
